Molecular target: Follistatin-related protein 3 (Homo sapiens)
Experiment: compounds binding follistatin-related protein 3 – biochemical, small-molecule microarray, 635 nm fluorescence, primary screen (AID 1105);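 also: score merges emission near 667 nm and signal to noise per printed spot across three slides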
Settings: FSTL3 binding, higher = more signal
If the reported composite z-score equals or exceeds -0.05, assign rule met. If not, assign rule not met.

Recorded results for 4 compounds are shown here.
compound | targetOfAssay | discreteLabel
CCCC1(C(=O)OC)C=C2C(=C(c3ccccc3)C(=O)C2C)CN1 (stereo not given) | Follistatin-related protein 3 (Homo sapiens) | rule met
O=C1OCC=C[C@H]2OC34C=CCN(Cn5nnc6ccccc65)C(=O)[C@H]3N(CCCCCO)C(=O)[C@@H]4[C@@H]12 (stereo not given in full) | Follistatin-related protein 3 (Homo sapiens) | rule not met
CCOC(=O)C[C@H]1[C@H](OC(=O)c2ccc(C(=O)c3ccccc3)cc2)[C@@H](NC(=O)c2ccccc2)c2cc(OCCCO)ccc2N1C(=O)c1ccccc1 | Follistatin-related protein 3 (Homo sapiens) | rule met
C=C(CCCC)/C(=C/C[C@@H](OC(C)=O)c1cccc(OCCO)c1)c1cnc2ccccc2c1 | Follistatin-related protein 3 (Homo sapiens) | rule met

Then this compound:
Dear colleague, could you confirm whether C=CCN(Cc1ccccc1)C(=O)C(c1cccs1)N(C(=O)/C=C\C(=O)O)c1ccc(CCOCCO)cc1 (stereo not given) has composite z-score at or above -0.05? rule not met
